# Test system: rat embryonic (E18) hippocampal neurons
# Protocol description: Neurite outgrowth screening assay with hippocampal neurons
# Type: cell-based
# Setup conditions: neurite total length as percentage of control; concentration 4000 (unit not given)
A collection of molecules and their measured NTL_4000 (neurite outgrowth, % NTL)
Field format: number, assumed %, no unit text.

INSERT INTO assay_data (molecule, value_observed) VALUES
  ('N#Cc1ccc(-c2cc(-c3c[nH]nc3-c3ccccn3)ccn2)cc1 [GW693028X]', 110.3241),
  ('c1ccc(-c2cnc(Nc3ccc(OCCN4CCCC4)cc3)s2)cc1 [Flt-3 Inhibitor III]', 105.129),
  ('Cl.O=S(=O)(c1cccc2c(I)cccc12)N1CCCNCC1 [ML-7, Hydrochloride]', 269.3169),
  ('NC[C@H](CC1CCCCC1)NC(=O)c1ccc(-c2ccnc3[nH]ccc23)s1 [GSK1581428A]', 92.84),
  ('NS(=O)(=O)c1cccc(N/C=C2\C(=O)Nc3ccc(S(=O)(=O)Cc4c(Cl)cccc4Cl)cc32)c1 [GSK398099A]', 234.4329);

For the molecule N#CC(=C(N)Sc1ccc(N)cc1)c1ccccc1C(F)(F)F [MEK1/2 Inhibitor] , what NTL_4000 (neurite outgrowth, % NTL) is on record?
120.1756
